Values compiled from patent US10471054B2.

# experiment-description: pKa
# Format: physicochemical
pKa values by entry
Answer as a number with no unit attached.

Solved entries (count: 2):
| molecule | pKa |
| --- | --- |
| CC(=O)c1c(O)c(CN2CCN(C)CC2)c2oc(-c3ccccc3)cc(=O)c2c1O | 4.9 |
| CC(=O)c1c(O)c(CN2CCCC2CO)c2oc(-c3ccccc3)cc(=O)c2c1O (stereo not shown) | 5.4 |

Report pKa for "CC(=O)c1c(O)c(CN2CCOCC2)c2oc(-c3ccccc3)cc(=O)c2c1O"
5.1

Check the records and state pKa for CN1CCN(Cc2c(O)c(O)c(O)c3c(=O)cc(-c4ccccc4)oc23)CC1 [BA-f, reference compound]
5.6

* * *

# experiment-description: Pharmacokinetics by oral in monkey (urine drug concentration-time curve)
# Assay type: in vivo
# test-settings: rhesus, urine; oral 5 mg/kg, monkey
parameter-measured: concentration at 24 h

Assign concentration at 24 h to the following record: "CC(=O)c1c(O)c(CN2CCC(O)CC2)c2oc(-c3ccccc3)cc(=O)c2c1O"
< 3000 nM

* * *

# experiment-description: Solubility in Octanol, water and pH media
# Assay type: physicochemical
# test-settings: pH 4.5, aqueous buffer; 0.05M NaAC-HAC buffered solution (pH4.5), 37° C.; read-out: Solubility
parameter-measured: solubility (µg/mL)
Give your result in µg/mL as a bare value.

For the compound CC(=O)c1c(O)c(CN2CCC(O)CC2)c2oc(-c3ccccc3)cc(=O)c2c1O [CH-j] , give its measured solubility value.
528

* * *

# experiment-description: Protein binding rate and reversible binding rate
# Format: in vitro ADME
# test-settings: plasma proteins; drug concentration 12.5 μg/ml
parameter-measured: fraction unbound at 12.5 μg/ml
In your answer, state the number alone without any accompanying words.

| compound | fraction unbound at 12.5 μg/ml |
| --- | --- |
| CC(=O)c1c(O)c(CN2CCC(O)CC2)c2oc(-c3ccccc3)cc(=O)c2c1O | 0.114 |

Now consider the entry below.
Check the records and state fraction unbound at 12.5 μg/ml for O=c1cc(-c2ccccc2)oc2c(CN3CCC(O)CC3)c(O)c(O)c(O)c12 [BA-j, reference compound]
0.067

* * *

# experiment-description: Pharmacokinetics by oral in monkey (urine drug concentration-time curve)
# Type: in vivo
# test-settings: rhesus, urine; oral, monkey (n = 6), 3 mg/kg in Table 4, 5 mg/kg in text
parameter-measured: Cmax

| molecule | Cmax |
| --- | --- |
| CC(=O)c1c(O)c(CN2CCC(O)CC2)c2oc(-c3ccccc3)cc(=O)c2c1O [CH-j] | 26.4 µM |

Quote Cmax reported for O=c1cc(-c2ccccc2)oc2c(CN3CCC(O)CC3)c(O)c(O)c(O)c12 [BA-j, reference compound] please.
25.4 µM

* * *

# experiment-description: Protein binding rate and reversible binding rate
# Type: in vitro ADME
# test-settings: plasma proteins; average of 3 concentrations; read-out: Protein binding rate AV (converted)
parameter-measured: fraction unbound
Number only, no unit.

| molecule | fraction unbound |
| --- | --- |
| O=c1cc(-c2ccccc2)oc2c(CN3CCC(O)CC3)c(O)c(O)c(O)c12 [BA-j, reference compound] | 0.082 |

Let us examine a further case.
Give the value of fraction unbound reported for the following: "CC(=O)c1c(O)c(CN2CCC(O)CC2)c2oc(-c3ccccc3)cc(=O)c2c1O"
0.14

* * *

# Test system: H-460
# experiment-description: Anti-cancer cells proliferation activity (MTT, 48 h)
# Type: cell-based
# test-settings: Homo sapiens, NCI-H460, H-460, MTT
parameter-measured: IC50 (µM)
Give just the number in µM; leave the unit off.

| compound | reported-value |
| --- | --- |
| O=c1cc(-c2ccccc2)oc2c(CN3CCC(O)CC3)c(O)c(O)c(O)c12 [BA-j, reference compound] | 13.7 |
| CC(=O)c1c(O)c(CN2CCN(C)CC2)c2oc(-c3ccccc3)cc(=O)c2c1O | 5.6 |

Next item in the queue.
Fill in IC50 for record "CC(=O)c1c(O)c(CN2CCC(O)CC2)c2oc(-c3ccccc3)cc(=O)c2c1O"
6.5

* * *

# experiment-description: pKa
# Assay type: physicochemical
parameter-measured: pKa
Simply state the number, no unit and no words.

For orientation, consider the following solved cases.
| molecule | pKa |
| --- | --- |
| CC(=O)c1c(O)c(CN2CCC(O)CC2)c(O)c2c(=O)cc(-c3ccccc3)oc12 | 4.5 |
| CC(=O)c1c(O)c(CN2CCN(CCO)CC2)c2oc(-c3ccccc3)cc(=O)c2c1O | 4.8 |
| CC(=O)c1c(O)c(CN2CCC(O)CC2)c2oc(-c3ccccc3)cc(=O)c2c1O | 5.3 |

Now examine the next entry.
Query pKa for O=c1cc(-c2ccccc2)oc2c(CN3CCC(O)CC3)c(O)c(O)c(O)c12 [BA-j, reference compound]
5.5

* * *

# experiment-description: Pharmacokinetics by oral in monkey (urine drug concentration-time curve)
# Type: in vivo
# test-settings: rhesus, monkey (n = 6), 3 mg/kg
Each entry below carries its reported AUC(0-inf).
Respond numerically; units are µM·h and should not be typed.

Please look at this compound and report its AUC(0-inf): O=c1cc(-c2ccccc2)oc2c(CN3CCC(O)CC3)c(O)c(O)c(O)c12 [BA-j, reference compound]
71.5

Write down AUC(0-inf) measured for item CC(=O)c1c(O)c(CN2CCC(O)CC2)c2oc(-c3ccccc3)cc(=O)c2c1O [CH-j]
20.4

* * *

# experiment-description: Solubility in Octanol, water and pH media
# Assay type: physicochemical
# test-settings: water, 37° C.; read-out: Solubility in H2O
I would appreciate it if you labelled entries MET when solubility is 40 µg/mL or higher, otherwise NOT MET.

Worked examples, 5 molecules total:
| molecule | assigned-category |
| --- | --- |
| CC(=O)c1c(O)c(CN2CCC(O)CC2)c2oc(-c3ccccc3)cc(=O)c2c1O | MET |
| CC(=O)c1c(O)c(CN2CCN(C)CC2)c2oc(-c3ccccc3)cc(=O)c2c1O | MET |
| CC(=O)c1c(O)c(CN2CCC(O)CC2)c(O)c2c(=O)cc(-c3ccccc3)oc12 | MET |
| CC(=O)c1c(O)c(CN2CCN(CCO)CC2)c2oc(-c3ccccc3)cc(=O)c2c1O | NOT MET |
| CC(=O)c1c(O)c(CN2CCOCC2)c2oc(-c3ccccc3)cc(=O)c2c1O | NOT MET |

Given CC(=O)c1c(O)c(CN2CCCC2CO)c2oc(-c3ccccc3)cc(=O)c2c1O (stereo not drawn) , state whether its solubility is at least 40 µg/mL.
MET

* * *

# experiment-description: Tissue distribution in rat, 2 h
# Assay type: in vivo
# test-settings: in vivo; rat 100 mg/kg, oral compared with intravenous
parameter-measured: bioavailability

Give the measured bioavailability for CC(=O)c1c(O)c(CN2CCC(O)CC2)c2oc(-c3ccccc3)cc(=O)c2c1O [CH-j]
~100%

* * *

# experiment-description: Solubility in Octanol, water and pH media
# Type: physicochemical
# test-settings: organic solvent or mixture; Octanol, 37° C.; read-out: Solubility in Octanol
parameter-measured: solubility

Example entries begin here.
| compound | parameter-measured | reported-value |
| --- | --- | --- |
| CC(=O)c1c(O)c(CN2CCC(O)CC2)c(O)c2c(=O)cc(-c3ccccc3)oc12 | solubility | 3410 µg/mL |
| CC(=O)c1c(O)c(CN2CCCC2CO)c2oc(-c3ccccc3)cc(=O)c2c1O (centres unmarked) | solubility | 2550 µg/mL |
| CN1CCN(Cc2c(O)c(O)c(O)c3c(=O)cc(-c4ccccc4)oc23)CC1 [BA-f, reference compound] | solubility | 277 µg/mL |
| CC(=O)c1c(O)c(CN2CCC(O)CC2)c2oc(-c3ccccc3)cc(=O)c2c1O | solubility | 2420 µg/mL |
| CC(=O)c1c(O)c(CN2CCN(CCO)CC2)c2oc(-c3ccccc3)cc(=O)c2c1O | solubility | 733 µg/mL |

Specify solubility for "CC(=O)c1c(O)c(CN2CCN(C)CC2)c2oc(-c3ccccc3)cc(=O)c2c1O" and stop.
5510 µg/mL

Report solubility, nothing else, for this compound: O=c1cc(-c2ccccc2)oc2c(CN3CCC(O)CC3)c(O)c(O)c(O)c12 [BA-j, reference compound]
377 µg/mL

Item "CC(=O)c1c(O)c(CN2CCOCC2)c2oc(-c3ccccc3)cc(=O)c2c1O" : provide solubility
580 µg/mL

* * *

# experiment-description: Protein binding rate and reversible binding rate
# Type: in vitro ADME
# test-settings: plasma proteins; drug concentration 25 μg/ml
Here the recorded fraction unbound at 25 μg/ml is given for each entry.
// return a plain number; no unit text

Determine its reported fraction unbound at 25 μg/ml: CC(=O)c1c(O)c(CN2CCC(O)CC2)c2oc(-c3ccccc3)cc(=O)c2c1O [CH-j]
0.156

Supply fraction unbound at 25 μg/ml value. Item: O=c1cc(-c2ccccc2)oc2c(CN3CCC(O)CC3)c(O)c(O)c(O)c12 [BA-j, reference compound]
0.075
